Target: α3β2γ2S GABAA receptors (Homo sapiens, UniProt P34903+P47870)
Sequence (P34903 29-492): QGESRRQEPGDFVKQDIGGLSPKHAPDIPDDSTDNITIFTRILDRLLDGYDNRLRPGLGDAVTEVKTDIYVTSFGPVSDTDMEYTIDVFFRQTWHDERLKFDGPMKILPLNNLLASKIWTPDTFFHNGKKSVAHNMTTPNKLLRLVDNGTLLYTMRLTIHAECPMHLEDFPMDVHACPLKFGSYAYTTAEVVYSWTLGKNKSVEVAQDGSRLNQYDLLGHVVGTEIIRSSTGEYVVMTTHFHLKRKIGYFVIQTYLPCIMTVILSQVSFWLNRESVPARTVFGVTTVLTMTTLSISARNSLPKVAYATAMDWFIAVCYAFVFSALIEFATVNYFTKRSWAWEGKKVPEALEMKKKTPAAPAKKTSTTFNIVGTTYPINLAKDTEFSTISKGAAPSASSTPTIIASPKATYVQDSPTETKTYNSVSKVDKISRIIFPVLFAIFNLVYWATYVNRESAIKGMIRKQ
Sequence (P47870 26-512): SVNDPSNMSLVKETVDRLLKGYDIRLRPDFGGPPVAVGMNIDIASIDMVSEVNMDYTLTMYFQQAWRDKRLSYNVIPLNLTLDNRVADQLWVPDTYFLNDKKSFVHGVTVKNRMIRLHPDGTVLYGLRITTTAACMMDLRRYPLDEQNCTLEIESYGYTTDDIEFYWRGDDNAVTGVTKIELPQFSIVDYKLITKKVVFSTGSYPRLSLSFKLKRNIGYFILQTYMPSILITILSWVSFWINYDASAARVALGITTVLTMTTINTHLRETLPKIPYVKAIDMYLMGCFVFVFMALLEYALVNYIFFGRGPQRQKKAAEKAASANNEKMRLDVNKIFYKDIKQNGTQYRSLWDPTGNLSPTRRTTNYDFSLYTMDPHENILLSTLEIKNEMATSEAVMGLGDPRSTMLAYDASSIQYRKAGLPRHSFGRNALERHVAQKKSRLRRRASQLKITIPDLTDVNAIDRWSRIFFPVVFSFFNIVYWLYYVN
Sequence (P18507 40-467 isoform P18507-1 partner limits assumed): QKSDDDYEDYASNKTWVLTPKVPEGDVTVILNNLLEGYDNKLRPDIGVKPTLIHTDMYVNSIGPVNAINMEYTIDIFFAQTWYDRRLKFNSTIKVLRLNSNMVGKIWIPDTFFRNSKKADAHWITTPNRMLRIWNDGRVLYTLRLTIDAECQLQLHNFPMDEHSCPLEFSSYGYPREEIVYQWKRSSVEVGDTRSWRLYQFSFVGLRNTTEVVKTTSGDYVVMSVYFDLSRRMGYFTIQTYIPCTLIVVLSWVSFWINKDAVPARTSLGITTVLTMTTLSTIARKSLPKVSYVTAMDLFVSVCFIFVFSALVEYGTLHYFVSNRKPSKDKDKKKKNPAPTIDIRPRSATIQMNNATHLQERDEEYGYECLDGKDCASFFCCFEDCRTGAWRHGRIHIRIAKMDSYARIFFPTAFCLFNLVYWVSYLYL
Assay: Two-microelectrode voltage clamp, IGABA modulation, α3β2γ2S
Description: Preparation of stage V–VI oocytes from X. laevis and synthesis of capped runoff poly(A) cRNA transcripts from linearized cDNA templates (pCMV vector) was performed as previously described.[49] […] To ensure expression of the γ2S subunit in the case of α1/2/3/5β2/3γ2S receptors, cRNAs were mixed in a ratio of 1:1:10. […] The amount of cRNAs was determined by means of a NanoDrop ND-1000 (Kisker-Biotech, Steinfurt, Germany). […]
Would you kindly list pEC50 for each of these compounds?
Interpret pEC50 as the negative base-10 log of the concentration measured in mol/L.

Please look up its pEC50: "CCCCN(CCCC)C(=O)/C=C/C=C/c1ccc2c(c1)OCO2"
4.80

Bench note: what pEC50 did "CCCN(CCC)C(=O)/C=C/C=C/c1ccc2c(c1)OCO2" show?
4.44
